Below: a set of entries, each annotated with reported Neutralization IC50 (RSV subtype A).
# assayed target: RSV F on RSV-A2 virus (Respiratory syncytial virus, RSV-A2, UniProt P03420 26-574)
# assay comment: cell-based or functional assay

**Q:** Return reported Neutralization IC50 (RSV subtype A); argument: ADI-41592 (antibody, V domains shown, also called Ab 866; Antibody Number 866) VH: EVQLVESGSELKKPGASVKVSCKASGYTFRTYVMNWVRQAPGQGLEWMGWINTNTGNPTYAQGFTGRFVFSLDTSVSTAYLQISSLKAEDTAVYYCARESIDDYDSSGYGRTFDYWGQGTLVTVSS VL: SYELTQPPSVSVSPGQTASIPCSGDKVGKTYVYWYQQTPGQSPGLVIYQDTKRPSGIPERFSGSSSGNTATLTISGTQTMDEADYYCQAWDTSTASYVFGTGTKLTVL
**A:** > 25 mg/L

**Q:** Return reported Neutralization IC50 (RSV subtype A); argument: ADI-41678 (antibody, V domains shown) VH: EVQLVESGGGVVQPGGSLRLSCAASGFTFRTYGMHWVRQAPGKGLEWVAVISYDGSNKYYADSLMGRFTISRDNSKNTLYLQMNSLRAEDTAVYYCAKCFVPGSGGWYEYYFDYWGQGTLVTVSS VL: QSVLTQPPSASGSPGQSVTISCTGTSSDVGGYNYVSWYQQHPGKAPKLMIYEVSKRPSGVPDRFSGSKSGNTASLTVSGLQAEDEADYYCSSYAGINNSVLFGGGTKLTVL
**A:** > 25 mg/L

**Q:** Return reported Neutralization IC50 (RSV subtype A); argument: ADI-36678 (antibody, V domains shown) VH: EVQLVQSGGGLVQPGGSLRVSCAASGLTVSTNYMSWVRQLPGKGLEWVSVIYSGGNTYYADSVKGRFTISRDNSKNIVYLEMNSLRIEDTAVYYCARAHLNNWFVSVTDTKDYYFDYWGQGTLVTVSS VL: SYELTQPPSVSVLPGQTASITCSGDKLGDKYASWYQQKPGQSPILVVFQDDKRPSGIPERFSGSNSGNTATLTISGTQATDEADYYCQACDRNTGVFGTGTKLTVL
**A:** 0.006 mg/L
